target: T1, human LILRB1 (human, UniProt Q8NHL6 24-650); test: FACS, 293F-hLILRB1 cells
T1 construct: whole, on cells; also called hLILRB1
T1 sequence (Q8NHL6 24-650): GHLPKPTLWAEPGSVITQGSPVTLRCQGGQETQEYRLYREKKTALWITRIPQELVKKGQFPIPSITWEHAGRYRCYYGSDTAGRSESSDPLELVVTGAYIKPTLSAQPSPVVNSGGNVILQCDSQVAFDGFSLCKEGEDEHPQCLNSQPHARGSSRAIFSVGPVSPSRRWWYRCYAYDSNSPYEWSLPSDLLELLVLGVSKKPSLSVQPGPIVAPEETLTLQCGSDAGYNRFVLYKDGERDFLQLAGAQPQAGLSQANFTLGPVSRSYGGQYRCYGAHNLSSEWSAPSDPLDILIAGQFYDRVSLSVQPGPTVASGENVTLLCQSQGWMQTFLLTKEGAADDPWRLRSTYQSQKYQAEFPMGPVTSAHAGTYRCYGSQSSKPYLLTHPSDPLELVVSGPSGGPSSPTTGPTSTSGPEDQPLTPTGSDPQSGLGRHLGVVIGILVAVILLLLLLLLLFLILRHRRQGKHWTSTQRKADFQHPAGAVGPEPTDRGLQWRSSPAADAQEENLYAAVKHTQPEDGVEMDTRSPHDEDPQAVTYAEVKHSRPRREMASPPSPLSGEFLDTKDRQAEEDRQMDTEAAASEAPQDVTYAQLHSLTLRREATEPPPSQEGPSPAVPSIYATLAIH
Measured MFI of individual entries

>  <Binder>
2-H8-C9-F7-E2 (antibody, V domains shown, mouse monoclonal hybridoma antibody) VH: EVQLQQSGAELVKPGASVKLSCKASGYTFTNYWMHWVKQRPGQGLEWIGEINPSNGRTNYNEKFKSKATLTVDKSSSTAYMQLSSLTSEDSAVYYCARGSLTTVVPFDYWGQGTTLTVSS VL: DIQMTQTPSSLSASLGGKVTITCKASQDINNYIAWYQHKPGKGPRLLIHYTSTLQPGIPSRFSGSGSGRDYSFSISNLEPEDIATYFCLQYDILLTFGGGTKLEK

>  <Units Text>
MFI

>  <MFI>
25.4

$$$$
>  <Binder>
26-H9-B9-B7 (antibody, V domains shown, mouse monoclonal hybridoma antibody) VH: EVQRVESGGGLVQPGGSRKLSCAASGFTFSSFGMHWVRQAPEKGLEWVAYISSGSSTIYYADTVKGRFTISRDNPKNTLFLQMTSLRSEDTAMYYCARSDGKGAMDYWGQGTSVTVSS VL: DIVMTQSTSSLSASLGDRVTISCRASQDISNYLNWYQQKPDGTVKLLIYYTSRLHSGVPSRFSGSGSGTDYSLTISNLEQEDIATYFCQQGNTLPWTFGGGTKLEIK

>  <Units Text>
MFI

>  <MFI>
20.8

$$$$
>  <Binder>
36-F4-H1-D9 (antibody, V domains shown, mouse monoclonal hybridoma antibody) VH: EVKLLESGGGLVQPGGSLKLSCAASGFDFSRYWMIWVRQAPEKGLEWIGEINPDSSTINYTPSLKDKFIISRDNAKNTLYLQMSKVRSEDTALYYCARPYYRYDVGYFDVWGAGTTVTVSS VL: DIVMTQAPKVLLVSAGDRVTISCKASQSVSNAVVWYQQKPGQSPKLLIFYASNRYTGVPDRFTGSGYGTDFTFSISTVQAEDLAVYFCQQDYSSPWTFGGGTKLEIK

>  <Units Text>
MFI

>  <MFI>
25.7

$$$$
